Target: JAK2 JH2 WT (V536-D812) [W659A, W777A, F794H solubilizing mutations] (Homo sapiens, UniProt O60674, F794H/W659A/W777A)
Construct: **JAK2 JH2 WT (V536-D812) [W659A, W777A, F794H solubilizing mutations]; C-thrombin-avi-His6; thrombin cleavage site (C); His6 (C); purchased Biortus
Sequence (O60674 536-812 W659A/W777A/F794H): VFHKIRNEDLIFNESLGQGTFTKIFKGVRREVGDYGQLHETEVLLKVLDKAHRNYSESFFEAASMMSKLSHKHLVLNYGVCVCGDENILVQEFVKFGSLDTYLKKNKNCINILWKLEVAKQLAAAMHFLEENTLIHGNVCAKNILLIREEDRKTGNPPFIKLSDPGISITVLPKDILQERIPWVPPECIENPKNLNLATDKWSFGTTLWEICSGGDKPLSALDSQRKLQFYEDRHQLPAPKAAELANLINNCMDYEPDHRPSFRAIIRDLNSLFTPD
Assay: Surface Plasmon Resonance (SPR) binding assay, JAK2 JH2 domain
pKd: −log10 of the molar value.
Known pKd of a selection of compounds

{"compound_smiles": "CNC(=O)c1nnc(NC(=O)C2CC2)cc1Nc1cccc(-c2cnn(C3CN(Cc4cccc(C5COC5)n4)C3)c2)c1OC", "recorded_result": "8.00 to 11.00"}

Exercise: For CNC(=O)c1nnc(NC(=O)C2CC2)cc1Nc1cccc(-c2cnn(C3CN(Cc4cccc(C(=O)N5CCC5)n4)C3)c2)c1OC , what is its reported pKd?
Solution: 8.00 to 11.00

Exercise: // query pKd value for entry CNC(=O)c1nnc(NC(=O)C2CC2)cc1Nc1ccc(C)c(-c2ccc(C(=O)N(C)Cc3cc(S(C)(=O)=O)ccn3)nc2)c1OC
Solution: 8.00 to 11.00
